# tested-on: PDGF-receptor beta enzyme comprising the tyrosine kinase domain (Homo sapiens)
# Construct: from amino acid 545 to 1106 of GenBank Access NO: AAA36427
# procedure-details: Inhibition of PDGF-receptor kinase activity (cell-free, PLC1 peptide, 33P Flashplate)
# Assay type: biochemical
# condition-notes: PDGF-R kinase activity; read-out: IC50
pIC50: −log10 of the molar value.
Response key: yes means pIC50 >= 6; no means pIC50 < 6.

input: Hello, I need to know if CCOc1cc2c(cc1OCC)C(C)c1c-2n[nH]c1Nc1cccnc1 (centres unmarked) has measured pIC50 not below 6. Thanks!
output: yes

input: Hello, I need to know if `Clc1ccc2c(c1)Cc1c-2n[nH]c1Nc1cccnc1` has measured pIC50 not below 6. Thanks!
output: yes

input: Hello, I need to know if `COc1cc2c(cc1OC)-c1c(c(Nc3cccc(F)c3)nn1C(=O)NCCNC(=O)C(C)C)C2` has measured pIC50 not below 6. Thanks!
output: no

###

# tested-on: PDGF-receptor beta enzyme comprising the tyrosine kinase domain (Homo sapiens, UniProt P09619)
# Construct: from amino acid 545 to 1106 of GenBank Access NO: AAA36427
# Sequence (P09619 545-1106): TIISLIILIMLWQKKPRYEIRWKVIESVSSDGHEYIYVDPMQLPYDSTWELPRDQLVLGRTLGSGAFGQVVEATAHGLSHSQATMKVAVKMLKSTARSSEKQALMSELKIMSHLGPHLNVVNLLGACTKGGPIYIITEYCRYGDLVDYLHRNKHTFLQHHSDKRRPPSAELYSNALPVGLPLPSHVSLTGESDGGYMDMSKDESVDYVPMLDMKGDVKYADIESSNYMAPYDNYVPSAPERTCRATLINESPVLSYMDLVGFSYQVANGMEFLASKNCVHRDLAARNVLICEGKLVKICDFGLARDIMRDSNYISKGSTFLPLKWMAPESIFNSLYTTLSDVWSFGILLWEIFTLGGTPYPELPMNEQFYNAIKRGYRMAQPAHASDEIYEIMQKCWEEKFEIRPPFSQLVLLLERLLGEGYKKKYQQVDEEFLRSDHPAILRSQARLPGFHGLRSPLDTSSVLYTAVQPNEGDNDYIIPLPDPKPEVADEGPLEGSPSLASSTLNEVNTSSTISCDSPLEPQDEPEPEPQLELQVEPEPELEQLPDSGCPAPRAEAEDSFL
# procedure-details: Inhibition of PDGF-receptor kinase activity (cell-free, PLC1 peptide, 33P Flashplate)
# Format: biochemical
# condition-notes: PDGF-R kinase activity; compound at 10 uM; read-out: Percent Inhibition @ 10 uM
Response key: condition met means inhibition at 10 µM >= 80%; condition not met means inhibition at 10 µM < 80%.

COc1cc2c(cc1OC)-c1n[nH]c(Nc3cccc(SC(F)(F)F)c3)c1C2    condition met
CCOc1cc2c(cc1OCCCO)Cc1c-2n[nH]c1Nc1cccc(F)c1    condition met
COc1cc2c(cc1OC)-c1n[nH]c(NCc3ccc(Cl)c(Cl)c3)c1C2    condition not met
Fc1cccc(Nc2[nH]nc3c2oc2ccccc23)c1    condition met
COc1cc2c(cc1OC)-c1n[nH]c(Nc3cccc(C(=O)NCCO)c3)c1C2    condition met

input: Hello, I need to know if `COc1cc2c(cc1OC)-c1n[nH]c(Nc3cc(C(F)(F)F)cc(C(F)(F)F)c3)c1C2` has measured inhibition at 10 µM not below 80%. Thanks!
output: condition not met

input: Hello, I need to know if `COCC(=O)n1nc(Nc2cccc(F)c2)c2c1-c1cc(OC)c(OC)cc1C2` has measured inhibition at 10 µM not below 80%. Thanks!
output: condition met

###

# tested-on: PDGF-receptor beta enzyme comprising the tyrosine kinase domain (Homo sapiens, UniProt P09619)
# Construct: from amino acid 545 to 1106 of GenBank Access NO: AAA36427
# procedure-details: Inhibition of PDGF-receptor kinase activity (cell-free, PLC1 peptide, 33P Flashplate)
# Format: biochemical
# condition-notes: PDGF-R kinase activity; compound at 10 uM; read-out: Percent Inhibition @ 10 uM
reported-endpoint: inhibition at 10 µM
Write the numeric value and follow it with the unit.

Worked cases, inhibition at 10 µM given:
COc1cc2c(cc1OCCCO)Cc1c-2n[nH]c1NCc1ccccc1Cl    98.5%
COc1cc2c(cc1F)Cc1c-2n[nH]c1NCc1ccccc1C    96%
COc1cccc(Nc2[nH]nc3c2Cc2cc(OCCCN4CCN(C)CC4)c(OC)cc2-3)c1    99%

input: Param item = COc1cc2c(cc1OCC(O)CO)Cc1c-2n[nH]c1NCc1c(Cl)cccc1Cl (centres unmarked) ; retrieve measured inhibition at 10 µM.
output: 100%

input: Param item = COc1cccc(Nc2[nH]nc3c2Cc2cc(OCC(O)CO)c(OC)cc2-3)c1 (centres unmarked) ; retrieve measured inhibition at 10 µM.
output: 91%

###

# tested-on: PDGF-receptor beta enzyme comprising the tyrosine kinase domain (Homo sapiens, UniProt P09619)
# Construct: from amino acid 545 to 1106 of GenBank Access NO: AAA36427
# procedure-details: Inhibition of PDGF-receptor kinase activity (cell-free, PLC1 peptide, 33P Flashplate)
# Format: biochemical
# condition-notes: PDGF-R kinase activity; read-out: IC50
# Method: PDGF-R kinase activity was assayed by its ability to phosphorylate one of its target proteins, PLCγ, in a cell-free system, in particular, a PLC1 peptide comprising the tyrosine residue where the phosphorylation occurs was used for the assay. […] In order to test the potency of inhibition of present compounds, an IC50 for an individual compound was measured using the above procedure. […]
Entries and their pIC50
# pIC50 is unitless: minus log10 of the molar concentration; print number only

Worked cases, pIC50 given:
CC1c2ccccc2-c2n[nH]c(Nc3ccc(OC(F)(F)F)cc3)c21 (centres unmarked)    5.61
COc1cc2c(cc1OC)-c1c(c(Nc3cccc(F)c3)nn1C(=O)NCCN(C)C)C2    5.75

input: Param item = `COc1cc2c(cc1OCCCN1CCCC1)Cc1c-2n[nH]c1Nc1ccc(F)c(Cl)c1` ; retrieve measured pIC50.
output: 7.81

input: Param item = `COc1cc2c(cc1OC)-c1n[nH]c(Nc3ccc(F)cc3)c1C2` ; retrieve measured pIC50.
output: 8.19

###

Entries and their pIC50
# tested-on: PDGF-receptor beta enzyme comprising the tyrosine kinase domain (Homo sapiens, UniProt P09619)
# Construct: from amino acid 545 to 1106 of GenBank Access NO: AAA36427
# procedure-details: Inhibition of PDGF-receptor kinase activity (cell-free, PLC1 peptide, 33P Flashplate)
# Assay type: biochemical
# condition-notes: PDGF-R kinase activity; read-out: IC50
# pIC50 is unitless: minus log10 of the molar concentration; print number only

input: Param item = COc1cc2c(cc1OCC(O)CN1CCCC1)Cc1c-2n[nH]c1NCc1c(Cl)cccc1Cl (stereo not drawn) [Compound 390] ; retrieve measured pIC50.
output: 8.69

###

Entries and their IC50
# tested-on: PDGF-receptor beta enzyme comprising the tyrosine kinase domain (Homo sapiens)
# Construct: from amino acid 545 to 1106 of GenBank Access NO: AAA36427
# procedure-details: Inhibition of PDGF-receptor kinase activity (cell-free, PLC1 peptide, 33P Flashplate)
# Assay type: biochemical
# condition-notes: PDGF-R kinase activity; read-out: IC50
State the answer as a number, implicitly in nM.

Worked cases, IC50 given:
COc1cc2c(cc1OC)-c1n[nH]c(Nc3ccc(Cl)c(Cl)c3)c1C2 [Compound 18]    230
Fc1ccc2c(c1)Cc1c-2n[nH]c1Nc1ccc(C(F)(F)F)cc1 [Compound 237]    50
COc1cc2c(cc1OCCCn1ccnc1)Cc1c-2n[nH]c1Nc1cccc(F)c1 [Compound 226]    3
COc1cc2c(cc1OC)-c1c(c(Nc3cccc(F)c3)nn1C(=O)COC(=O)C(C)C)C2 [Compound 474]    63.4
COC(=O)CCC(=O)n1nc(Nc2cccc(F)c2)c2c1-c1cc(OC)c(OC)cc1C2 [Compound 428]    432

input: Param item = COc1cc2c(cc1OC)-c1n[nH]c(NCc3ccccn3)c1C2 [Compound 563] ; retrieve measured IC50.
output: 1450

input: Param item = COCCCOc1ccc2c(c1)Cc1c-2n[nH]c1Nc1cccc(OC)c1 [Compound 139] ; retrieve measured IC50.
output: 98.2

input: Param item = CCc1cccc(Nc2[nH]nc3c2Cc2cc(OC)c(OC)cc2-3)c1 [Compound 209] ; retrieve measured IC50.
output: 32.8

input: Param item = Fc1ccc2c(c1)Cc1c-2n[nH]c1Nc1ccc(F)c(Cl)c1 [Compound 202] ; retrieve measured IC50.
output: 12.4

###

# tested-on: PDGF-receptor beta enzyme comprising the tyrosine kinase domain (Homo sapiens)
# Construct: from amino acid 545 to 1106 of GenBank Access NO: AAA36427
# procedure-details: Inhibition of PDGF-receptor kinase activity (cell-free, PLC1 peptide, 33P Flashplate)
# Assay type: biochemical
# condition-notes: PDGF-R kinase activity; read-out: IC50
// assign rule met if IC50 falls strictly below 100 nM, else rule not met (ties count as rule not met)

Examples from the recorded data:
COC(=O)c1cccc(Nc2[nH]nc3c2Cc2cc(OCCCN4CCCC4)c(OC)cc2-3)c1    rule met
COCCCOc1cc2c(cc1OCCCOC)-c1n[nH]c(Nc3cccc(Cl)c3)c1C2    rule met
Fc1ccc(F)c(Nc2[nH]nc3c2Cc2ccccc2-3)c1    rule not met
COc1cc2c(cc1OC)-c1n[nH]c(Nc3ccccc3)c1C2    rule met
Fc1cccc(Nc2[nH]nc3c2Cc2cc(Br)ccc2-3)c1    rule met

input: Given CCC1c2cc(OC)c(OC)cc2-c2n[nH]c(Nc3cccc(Cl)c3)c21 (stereo not drawn) , is recorded IC50 strictly lower than 100 nM?
output: rule met

input: Given `Cc1ccc(Nc2[nH]nc3c2Cc2cc(Cl)ccc2-3)cc1` , is recorded IC50 strictly lower than 100 nM?
output: rule not met

input: Given CCOc1cccc(Nc2[nH]nc3c2C(CC)c2cc(OC)c(OC)cc2-3)c1 (stereo not drawn) [Compound 505] , is recorded IC50 strictly lower than 100 nM?
output: rule not met

input: Given `COc1cccc2c1Cc1c-2n[nH]c1Nc1cccc(C(F)(F)F)c1` , is recorded IC50 strictly lower than 100 nM?
output: rule not met
